# MEASURED ON: MMP-8 (Homo sapiens)
# Sequence (P22894 101-467): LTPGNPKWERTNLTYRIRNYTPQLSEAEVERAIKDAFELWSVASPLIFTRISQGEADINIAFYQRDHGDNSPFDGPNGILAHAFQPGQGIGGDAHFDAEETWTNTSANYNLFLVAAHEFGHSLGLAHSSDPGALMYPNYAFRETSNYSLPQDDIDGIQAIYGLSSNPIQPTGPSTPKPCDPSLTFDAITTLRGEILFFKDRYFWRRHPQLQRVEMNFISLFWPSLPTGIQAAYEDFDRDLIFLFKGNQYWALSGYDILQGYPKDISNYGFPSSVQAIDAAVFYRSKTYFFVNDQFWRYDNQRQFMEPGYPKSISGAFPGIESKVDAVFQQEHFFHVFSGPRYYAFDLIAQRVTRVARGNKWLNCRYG
log10 IC50 by entry:
VALUE TYPE: log10 IC50 (log10 of the value in µM)

| COMPOUND | VALUE TYPE | READING |
| --- | --- | --- |
| O=C(/C=C/c1ccc(O)cc1)C(C(=O)/C=C/c1ccc(O)cc1)C(=O)Nc1ccccc1 [Compound 4] | log10 IC50 | 0.65 |
| COC(=O)C(C(=O)/C=C/c1ccc(O)cc1)C(=O)/C=C/c1ccc(O)cc1 [Compound 5] | log10 IC50 | 1.30 |
| COc1cc(/C=C/C(=O)C(C(=O)/C=C/c2ccc(O)c(OC)c2)C(=O)Nc2ccccc2)ccc1O [Compound 3] | log10 IC50 | 0.40 |
| COC(=O)C(C(=O)/C=C/c1ccc(O)c(OC)c1)C(=O)/C=C/c1ccc(O)c(OC)c1 [Compound 2] | log10 IC50 | 1.49 |
| c1cnc2c(c1)ccc1cccnc12 [1,10-Phen, 1,10-phenanthroline, reference compound] | log10 IC50 | 1.50 |
